Target: T1, Vac8 (full length, residues 1 to 578) (S. cerevisiae, UniProt P39968 1-578)
T1 sequence: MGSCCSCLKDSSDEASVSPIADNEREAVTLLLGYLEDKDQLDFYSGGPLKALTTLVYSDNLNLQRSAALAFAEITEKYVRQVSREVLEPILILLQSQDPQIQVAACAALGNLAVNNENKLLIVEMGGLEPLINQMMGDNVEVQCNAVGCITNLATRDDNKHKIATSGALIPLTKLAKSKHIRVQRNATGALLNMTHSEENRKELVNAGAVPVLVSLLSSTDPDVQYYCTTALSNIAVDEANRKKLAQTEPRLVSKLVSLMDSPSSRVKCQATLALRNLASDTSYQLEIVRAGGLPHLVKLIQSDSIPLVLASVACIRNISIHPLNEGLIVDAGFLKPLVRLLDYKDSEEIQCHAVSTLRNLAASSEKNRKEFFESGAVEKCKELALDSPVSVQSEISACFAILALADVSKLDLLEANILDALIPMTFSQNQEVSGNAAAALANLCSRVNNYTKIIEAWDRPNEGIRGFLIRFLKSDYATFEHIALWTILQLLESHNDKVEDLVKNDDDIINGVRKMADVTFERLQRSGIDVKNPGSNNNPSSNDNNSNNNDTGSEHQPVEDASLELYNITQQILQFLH
Test: ITC
Where no end group is shown, it is not given here.
QUANTITY: Kd (nM)
One number for each entry, in nM.

Exercise: Could you share which Kd value was measured for Halo-tag-conjugated tVac17 (Vac17 residues 290 to 344) (domain or fragment, also: Halo-tag conjugate) SASFFRPSNPTFGTSISNVQVNCHPTVAATMAPSRNGPRISSSKALLSSFIARSD ?
Solution: 2530
